- Test target: RALA G23C (Homo sapiens, UniProt P11233, G23C)
- Construct: (residues 11-183, either WT or G23C); hexahistidine (TEV-cleavable); made in house; host or cells: Escherichia coli BL21 (DE)
- Sequence (P11233 11-183 G23C): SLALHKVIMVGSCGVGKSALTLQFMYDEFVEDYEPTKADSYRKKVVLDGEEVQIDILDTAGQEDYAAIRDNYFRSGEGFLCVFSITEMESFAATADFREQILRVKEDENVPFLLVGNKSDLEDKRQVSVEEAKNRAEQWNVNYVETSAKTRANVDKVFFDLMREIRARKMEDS
- Assay summary: Rate constant of covalent reaction of competition probes with RALA mutant (mass spectrometry)
- Format: binding
# label = fulfilled if Rate Constant for Reaction with Indicated Protein, RALA G23C < 6 M⁻¹ s⁻¹ else not fulfilled

Previously resolved entries follow.
INSERT INTO results (compound, group) VALUES
  ('C=CC(=O)N1CCN(c2ncnc3cc(Cl)c(-c4cccs4)cc23)CC1 [CP-018]', 'not fulfilled'),
  ('C=CC(=O)N1CCN(c2ncnc3cc(Cl)c(-c4ccc(Br)cc4)cc23)CC1 [CP-015]', 'not fulfilled'),
  ('C=CC(=O)N1CCN(c2ncnc3cc(Cl)c(-c4ccc(Cl)cc4)cc23)CC1 [CP-013]', 'not fulfilled'),
  ('C=CC(=O)N1CCN(c2ncnc3c(F)c(-c4c(O)cccc4F)c(Cl)cc23)CC1 [CP-012]', 'fulfilled'),
  ('C=CC(=O)N1CCN(c2ncnc3cc(Cl)c(-c4ccc(Cl)s4)cc23)CC1 [CP-019]', 'not fulfilled');

Query string: Hi there! Is Rate Constant for Reaction with Indicated Protein, RALA G23C for C=CC(=O)N1CCN(c2ccc(-c3cc(O)ccc3Cl)cc2C#N)CC1 [CP-009] below 6 M⁻¹ s⁻¹, do you know?
Result string: fulfilled

Query string: Subsequent entry: C=CC(=O)N1CCN(c2ncnc3cc(Cl)c(-c4ccccc4Cl)cc23)CC1 [CP-011]
Result string: fulfilled

Query string: Subsequent entry: C=CC(=O)N1CCN(C(=O)c2cc(-c3cc(Cl)ccc3Cl)c(Cl)cc2O)CC1 [CP-010]
Result string: fulfilled

----------
- Test target: KRAS D92C/WT (Homo sapiens, UniProt P01116, D92C)
- Construct: made in house
- Assay summary: Covalent modification of KRAS mutant by competition probes (TOF mass spectrometry, Agilent RapidFire)
- Format: binding
- Condition details: probe 30 μM
Property name: % Covalent Modification with Indicated Protein at 6 hr, D92C/WT (%)
Answers are plain numbers, in %.

These recorded examples may help you get a feel for the data.
INSERT INTO measurements (compound, u, recorded_measurement) VALUES
  ('C=CS(=O)(=O)NC1CCN(c2nc(N3CCN(C(C)=O)CC3)c3cc(Cl)c(-c4c(O)cccc4F)c(F)c3n2)C1 (stereo not shown)', '%', 89),
  ('C=CS(=O)(=O)N1CCC(Nc2nc(N3CCN(C(C)=O)CC3)c3cc(Cl)c(-c4c(O)cccc4F)c(F)c3n2)CC1', '%', 28),
  ('C=CC(=O)N1CCC(Nc2nc(N3CCN(C(C)=O)CC3)c3cc(Cl)c(-c4c(O)cccc4F)c(F)c3n2)C1 (stereo not shown)', '%', 93);

The record that follows has no % Covalent Modification with Indicated Protein at 6 hr, D92C/WT shown yet.
Query string: Requested read-out: % Covalent Modification with Indicated Protein at 6 hr, D92C/WT. Entry: C=CS(=O)(=O)NC1CCCN(c2nc(N3CCN(C(C)=O)CC3)c3cc(Cl)c(-c4c(O)cccc4F)c(F)c3n2)C1 (stereo not shown)
Result string: 97
